Ref: ChEMBL document CHEMBL1136847

- System: LNCaP
- assay notes: Cytotoxicity against androgen-dependent human LNCAP cells with T877A AR mutant after 72 hrs by MTT assay
- Format: functional, cell-based

{"compound": "CC(=O)/C=C/C1C(C)=CCCC1(C)C (centres undefined)", "IC50": "151 µM"}
{"compound": "CC1=CCCC(C)(C)C1/C=C/C(=O)/C=C/c1cccc(C(F)(F)F)c1 (centres undefined)", "IC50": "1 µM"}
{"compound": "COc1ccc(/C=C/C(=O)/C=C/C2=C(C)CCCC2(C)C)cc1OC", "IC50": "9.5 µM"}
{"compound": "CC1=C(/C=C/C(=O)/C=C/c2ccccc2)C(C)(C)CCC1O (centres undefined)", "IC50": "5.8 µM"}

----------
IC50 overview
- Test system: LNCaP
- assay notes: Cytotoxicity against androgen-dependent human LNCAP cells with T877A AR mutant after 72 hrs by MTT assay
- Type: functional, cell-based

{"compound": "CC1=C(/C=C/C(=O)/C=C/c2cc([N+](=O)[O-])ccc2Cl)C(C)(C)CCC1", "units text": "µM", "IC50": 4.2}
{"compound": "CC1=C(/C=C/C(=O)/C=C/c2cccc(C#N)c2)C(C)(C)CCC1O (stereo not given)", "units text": "µM", "IC50": 1.8}
{"compound": "CC1=CCCC(C)(C)C1/C=C/C(=O)/C=C/c1cc(C(F)(F)F)ccc1F (stereo not given)", "units text": "µM", "IC50": 1.7}
{"compound": "CC1=C(/C=C/C(=O)/C=C/c2cc(C(F)(F)F)ccc2F)C(C)(C)CCC1O (stereo not given)", "units text": "µM", "IC50": 1.7}
{"compound": "CC1=C(/C=C/C(=O)/C=C/c2ccccc2C(F)(F)F)C(C)(C)CCC1O (stereo not given)", "units text": "µM", "IC50": 2.9}
{"compound": "CC1=C(/C=C/C(=O)/C=C/c2ccc(C(F)(F)F)cc2)C(C)(C)CCC1", "units text": "µM", "IC50": 9.1}
{"compound": "CC1=C(/C=C/C(=O)/C=C/c2ccccc2F)C(C)(C)CCC1O (stereo not given)", "units text": "µM", "IC50": 2.9}
{"compound": "CC1=C(/C=C/C(=O)/C=C/c2cccc(F)c2)C(C)(C)CCC1O (stereo not given)", "units text": "µM", "IC50": 4.4}
{"compound": "CC1=C(/C=C/C(=O)/C=C/c2cccc(F)c2)C(C)(C)CCC1", "units text": "µM", "IC50": 12.9}
{"compound": "CCOC(OCC)c1cccc(/C=C/C(=O)/C=C/C2=C(C)C(O)CCC2(C)C)c1 (stereo not given)", "units text": "µM", "IC50": 1.8}
{"compound": "CC1=C(/C=C/C(=O)/C=C/c2ccc(F)c(C(F)(F)F)c2)C(C)(C)CCC1O (stereo not given)", "units text": "µM", "IC50": 2.2}
{"compound": "CC1=C(/C=C/C(=O)/C=C/c2ccc(C(F)(F)F)cc2F)C(C)(C)CCC1O (stereo not given)", "units text": "µM", "IC50": 2.6}
{"compound": "CC1=C(/C=C/C(=O)/C=C/c2cc(C(F)(F)F)cc(C(F)(F)F)c2)C(C)(C)CCC1O (stereo not given)", "units text": "µM", "IC50": 2.1}
{"compound": "CC1=C(/C=C/C(=O)/C=C/c2cccc([N+](=O)[O-])c2)C(C)(C)CCC1", "units text": "µM", "IC50": 2.7}
{"compound": "CC1=C(/C=C/C(=O)/C=C/c2cccc(C(F)(F)F)c2)C(C)(C)CCC1", "units text": "µM", "IC50": 2.8}
{"compound": "CC1=C(/C=C/C(=O)/C=C/c2cc(C(F)(F)F)cc(C(F)(F)F)c2)C(C)(C)CCC1", "units text": "µM", "IC50": 8.7}
{"compound": "CC1=C(/C=C/C(=O)/C=C/c2c(F)cccc2C(F)(F)F)C(C)(C)CCC1O (stereo not given)", "units text": "µM", "IC50": 4.9}
{"compound": "COc1cccc(/C=C/C(=O)/C=C/C2=C(C)C(O)CCC2(C)C)c1 (stereo not given)", "units text": "µM", "IC50": 4.9}
{"compound": "CC1=C(/C=C/C(=O)/C=C/c2cc(C(F)(F)F)ccc2C(F)(F)F)C(C)(C)CCC1O (stereo not given)", "units text": "µM", "IC50": 3.2}
{"compound": "CC1=CCCC(C)(C)C1/C=C/C(=O)/C=C/c1ccc(C(F)(F)F)cc1 (stereo not given)", "units text": "µM", "IC50": 4.7}
{"compound": "CC1=CCCC(C)(C)C1/C=C/C(=O)/C=C/c1cccc([N+](=O)[O-])c1 (stereo not given)", "units text": "µM", "IC50": 3.3}
{"compound": "CC1=C(/C=C/C(=O)/C=C/c2cccc([N+](=O)[O-])c2)C(C)(C)CCC1O (stereo not given)", "units text": "µM", "IC50": 2}
{"compound": "CC1=C(/C=C/C(=O)/C=C/c2ccc(-c3ccccc3)cc2)C(C)(C)CCC1", "units text": "µM", "IC50": 14.8}
{"compound": "CC1=C(/C=C/C(=O)/C=C/c2cccc(C(F)(F)F)c2)C(C)(C)CCC1O (stereo not given)", "units text": "µM", "IC50": 0.74}
{"compound": "CC1=C(/C=C/C(=O)/C=C/c2ccc(F)cc2)C(C)(C)CCC1", "units text": "µM", "IC50": 7.3}
{"compound": "CC1=CCCC(C)(C)C1/C=C/C(=O)/C=C/c1ccccc1F (stereo not given)", "units text": "µM", "IC50": 1.6}
{"compound": "CC1=C(/C=C/C(=O)/C=C/c2cc(F)cc(C(F)(F)F)c2)C(C)(C)CCC1O (stereo not given)", "units text": "µM", "IC50": 1.1}
{"compound": "CC1=C(/C=C/C(=O)/C=C/c2cccc(C)c2)C(C)(C)CCC1O (stereo not given)", "units text": "µM", "IC50": 4.1}
{"compound": "CC1=C(/C=C/C(=O)/C=C/c2ccc(O)c([N+](=O)[O-])c2)C(C)(C)CCC1", "units text": "µM", "IC50": 26.8}
{"compound": "CC1=C(/C=C/C(=O)/C=C/c2ccc(C(F)(F)F)cc2)C(C)(C)CCC1O (stereo not given)", "units text": "µM", "IC50": 3}
{"compound": "CC1=C(/C=C/C(=O)/C=C/c2cccc(C(F)(F)F)c2F)C(C)(C)CCC1O (stereo not given)", "units text": "µM", "IC50": 1.1}
{"compound": "CCOc1ccc(/C=C/C(=O)/C=C/C2=C(C)CCCC2(C)C)cc1OCC", "units text": "µM", "IC50": 8.2}
{"compound": "CC1=C(/C=C/C(=O)/C=C/c2ccc([N+](=O)[O-])cc2)C(C)(C)CCC1O (stereo not given)", "units text": "µM", "IC50": 4.2}
{"compound": "COc1cc(/C=C/C(=O)/C=C/C2=C(C)CCCC2(C)C)ccc1O", "units text": "µM", "IC50": 9.5}
{"compound": "CC1=CCCC(C)(C)C1/C=C/C(=O)/C=C/c1cccc(C)c1 (stereo not given)", "units text": "µM", "IC50": 12.2}
{"compound": "CC1=C(/C=C/C(=O)/C=C/c2ccc(F)cc2)C(C)(C)CCC1O (stereo not given)", "units text": "µM", "IC50": 3.9}
{"compound": "CC1=C(/C=C/C(=O)/C=C/c2ccccc2F)C(C)(C)CCC1", "units text": "µM", "IC50": 10.7}
{"compound": "CC1=C(/C=C/C(=O)/C=C/c2cccc(C)c2)C(C)(C)CCC1", "units text": "µM", "IC50": 17.8}
{"compound": "CC1=CCCC(C)(C)C1/C=C/C(=O)/C=C/c1ccccc1C(F)(F)F (stereo not given)", "units text": "µM", "IC50": 22.6}
{"compound": "COc1ccc(/C=C/C(=O)/C=C/C2=C(C)CCCC2(C)C)cc1O", "units text": "µM", "IC50": 9.9}
